- Tested on: OVCAR-8 ovarian
- EXPERIMENTAL PROTOCOL: NCI tumour cell line growth inhibition, 48 h
List of TGI values.

Below, each entry is followed by its recorded TGI result.
| MOLECULE | RECORDED RESULT |
| --- | --- |
| CN(C)CCN1N=Nc2cccc3cccc1c23 | > 100 µM |
| Cc1nc2ccc(S(=O)(=O)Nc3ccccn3)cc2c(=O)n1NS(=O)(=O)c1ccccn1 | > 100 µM |
| CC1=C2C(=CC(C)(CO)C2O)C(=O)C(C)(O)C12CC2 (stereo not drawn) | 0.0127 µM |
| COc1ccc(/C=C(\C#N)n2nnc3cc(Cl)ccc32)cc1 | > 100 µM |

Input: For the molecule c1ccc2nc3c(nc2c1)sc1nc2ccccc2n13 , what TGI is on record?
Output: > 100 µM

Input: For the molecule Nc1c(O)c2c(c(O)c1Cl)C(=O)C=CC2=O , what TGI is on record?
Output: 14 µM

====

- System: NCI/ADR-RES ovarian
- EXPERIMENTAL PROTOCOL: NCI tumour cell line growth inhibition, 48 h
List of GI50 values.

Below, each entry is followed by its recorded GI50 result.
| COMPOUND | GI50 |
| --- | --- |
| O=C1c2[nH]cc(CN[C@@H]3CCCN3)c2C(=O)c2c1c(O)c1ccccc1c2O | 3.88 µM |
| COc1c(O)cc2oc3cc(O)c(CC=C(C)C)c(O)c3c(=O)c2c1C/C=C(\C)CCC=C(C)C | 5.99 µM |
| CCN(Cc1ccc(F)cc1F)c1ccc(CO)c(Cl)c1 | 12.6 µM |
| COc1ccc(/C=C(\C#N)n2nnc3cc(Cl)ccc32)cc1 | 0.299 µM |
| COc1ccc(-c2nc3sccn3c2/C=C/C(=O)c2cc(OC)c(OC)c(OC)c2)cc1OC | 2.27 µM |

Input: Under NCI/ADR-RES ovarian: GI50 value of Cc1c2ncccc2c(C)c2c1[nH]c1ccc(O)cc12 ?
Output: 4.08 µM

Input: Under NCI/ADR-RES ovarian: GI50 value of O=C(Nc1cccc(NS(=O)(=O)c2ccc(F)cc2)c1)c1ccc(-c2ccccc2)cc1 ?
Output: 2.75 µM

Input: Under NCI/ADR-RES ovarian: GI50 value of CC1/C=C/C=C/CC/C=C/C=C/C=C/C=C/C(OC2OC(C)C(O)C(N)C2O)CC2OC(CC(O)C(O)CCC(O)CC(O)CC(O)CC(=O)OC(C)C(C)C1O)CC(O)C2C(=O)O (centres undefined) ?
Output: 41 µg/mL

Input: Under NCI/ADR-RES ovarian: GI50 value of COC(=O)c1ccc(-c2nc3cc(F)c(F)cc3nc2C#N)cc1 ?
Output: 4.21 µM

====

- System: MDA-MB-231 breast
- EXPERIMENTAL PROTOCOL: NCI tumour cell line growth inhibition, 48 h; in the data active = GI50 below about 0.43 µM; inactive = the rest
Write down the outcome that applies. Available outcomes: True (active), False (inactive)

Some entries whose results are on file:
| COMPOUND | ANSWER LABEL |
| --- | --- |
| COc1cc2c3c(n(CCCO)c(=O)c2cc1OC)-c1cc2c(cc1C3=O)OCO2 | False |
| Cc1c(C(=O)N/N=C/c2ccc(O)cc2)nnn1-c1ccnc2c(C(F)(F)F)cccc12 | False |
| CCOC(=O)Oc1c(OC)cc(C(=O)c2ccc(OC)c(OC(=O)CCl)c2OC)cc1OC | False |
| NCCCn1c2c(c3ccccc3c1=O)C(=O)c1cc3c(cc1-2)OCO3 | False |

Input: Test call, this compound: c1ccc(Oc2c3ccccc3nc3ccccc23)cc1
Output: False

Input: Test call, this compound: COc1ccc(/C=C\c2cc(OC)c(OC)c(OC)c2)cc1NC(=O)[C@@H](N)CO
Output: True

Input: Test call, this compound: O=C(Nc1ncc([N+](=O)[O-])s1)c1cccc([N+](=O)[O-])c1
Output: False

Input: Test call, this compound: CC(C)(C)[Si](C)(C)OC1[C@@H](O[Si](C)(C)C(C)(C)C)[C@@H](CNC(=O)NC(=O)NC(=O)CI)O[C@H]1n1cnc2c(NC(=O)Nc3ccccc3)ncnc21 (some centres undefined)
Output: True

Input: Test call, this compound: O=c1oc2ccccc2c(Cl)c1Cl
Output: False

====

- Tested on: OVCAR-5 ovarian
- EXPERIMENTAL PROTOCOL: NCI tumour cell line growth inhibition, 48 h
RECORDED METRIC: TGI

Input: For the compound CCOC(=O)c1[nH]c2cccc3c2c1CC(Br)C3=O (stereo unspecified) , what TGI is on record?
Output: 34.5 µM

Input: For the compound C=CC[P@@]1(=O)O[C@H](c2ccccc2)C(C)N1C(C)C (stereo partly specified) , what TGI is on record?
Output: > 100 µM

Input: For the compound CCOC(=O)c1nc2cc(F)c(F)cc2nc1NCc1cc(OC)c(OC)c(OC)c1 , what TGI is on record?
Output: > 100 µM

====

List of TGI values.
- Tested on: RPMI-8226 leukemia
- EXPERIMENTAL PROTOCOL: NCI tumour cell line growth inhibition, 48 h

| COMPOUND | TGI |
| --- | --- |
| O=c1cnn(C/C=C/CP(=O)(O)O)c(=O)[nH]1 | > 100 µM |
| O=C1C2c3[nH]c4ccccc4c3C3CCSCC3C2C(=O)N1c1ccccc1 (stereo unspecified) | > 100 µM |
| CC12CC(=O)OC(Cc3ccccc31)O2 (stereo unspecified) | > 100 µM |
| NCCCn1c2c(c3ccccc3c1=O)C(=O)c1cc3c(cc1-2)OCO3 | 0.258 µM |
| CCCOP1(=O)C=C(C)C(Cl)=C(C)C1 (stereo unspecified) | 35.5 µM |

Input: Under RPMI-8226 leukemia: TGI value of O=P(Oc1ccccc1)(Oc1ccccc1)C(O)c1ccccc1 (stereo unspecified) ?
Output: > 100 µM

====

- Tested on: SK-MEL-5 melanoma
- EXPERIMENTAL PROTOCOL: NCI tumour cell line growth inhibition, 48 h
List of TGI values.

Input: Under SK-MEL-5 melanoma: TGI value of Cc1ccc(/C(O)=C/c2nc3ccccc3nc2NC23CC4CC(CC(C4)C2)C3)cc1 ?
Output: > 10 µM

Input: Under SK-MEL-5 melanoma: TGI value of NC(=O)c1csc(C2O[C@@H](COP(=O)(O)OP(=O)(O)OC[C@H]3OC(n4cnc5c(N)ncnc54)[C@H](O)[C@@H]3O)[C@H](O)[C@@H]2O)n1 (stereo partly drawn) ?
Output: > 100 µM

Input: Under SK-MEL-5 melanoma: TGI value of CCOC(=O)c1sc2ncn(Cc3cccc(Cl)c3)c(=O)c2c1C ?
Output: 28.1 µM

Input: Under SK-MEL-5 melanoma: TGI value of COc1ccc(/C=C(\C#N)n2nnc3cc(Cl)ccc32)cc1 ?
Output: 10.6 µM

Input: Under SK-MEL-5 melanoma: TGI value of Nc1nc([O-])c([I+]c2ccccc2)c(=O)[nH]1 ?
Output: > 100 µM

Input: Under SK-MEL-5 melanoma: TGI value of CC(C)(C)c1ccc(Oc2ccc(C#N)c(C#N)c2)c(C(C)(C)C)c1 ?
Output: > 100 µM

Input: Under SK-MEL-5 melanoma: TGI value of COc1cc2c3c(n(CCCO)c(=O)c2cc1OC)-c1cc2c(cc1C3=O)OCO2 ?
Output: > 52.9 µM

Input: Under SK-MEL-5 melanoma: TGI value of c1ccc2nc3c(nc2c1)sc1nc2ccccc2n13 ?
Output: > 100 µM

====

- System: BT-549 breast
- EXPERIMENTAL PROTOCOL: NCI tumour cell line growth inhibition, 48 h
RECORDED METRIC: GI50

| SMILES STR | MEASURED TARGET | GI50 |
| --- | --- | --- |
| O=C(Nc1cccc(NS(=O)(=O)c2ccc(F)cc2)c1)c1ccc(-c2ccccc2)cc1 | BT-549 breast | 2.99 µM |
| Cc1ccc2c(/C=C/C(=O)c3cc(CN4CCOCC4)c(O)c4nc(C)ccc34)cc(CN3CCOCC3)c(O)c2n1 | BT-549 breast | 1.22 µM |
| COc1ccc(/C=C/C(=O)/C=C(/C=C/c2ccc(OC)c(OC)c2)OB(F)F)cc1OC | BT-549 breast | 1.13 µM |

Input: For the molecule COC(=O)C/C(C)=C/[C@@H](O)[C@H]1O[C@@H]2CC/C(Cl)=C/C/C=C(/C)[C@H](OC(C)=O)CC(=O)O[C@@H]1C2 , what GI50 is on record?
Output: 1.89 µM

Input: For the molecule CCN(Cc1ccc(F)cc1F)c1ccc(CO)c(Cl)c1 , what GI50 is on record?
Output: 14.3 µM
